Below are pIC50 values measured for Fructose-1,6-bisphosphatase 1 (Homo sapiens, UniProt P09467).
pIC50 here: minus log base 10 of the concentration, concentration in moles per litre.

INSERT INTO measurements (chemicalstring, measurednumber) VALUES
  ('CCOC(=O)[C@H](C)NP(=O)(N[C@@H](C)C(=O)OCC)c1ccc(-c2nc(N)sc2CC(C)C)o1', 8.00),
  ('CCOC(=O)[C@H](C)NP(=O)(COc1ccc(C(=O)NCC(C)(C)C)c2c1-c1ncsc1C2)N[C@@H](C)C(=O)OCC', 7.96),
  ('CCOC(=O)CNP(=O)(COc1cc(C)c(C)c2c1-c1ncsc1C2)NCC(=O)OCC', 8.00);

Q) Param readout = pIC50; param system = Fructose-1,6-bisphosphatase 1 (Homo sapiens, UniProt P09467); param query = CCOC(=O)[C@H](C)NP(=O)(COc1ccc(C)c2c1-c1ncsc1C2)N[C@@H](C)C(=O)OCC ; response: value
Sequence (P09467 whole entry): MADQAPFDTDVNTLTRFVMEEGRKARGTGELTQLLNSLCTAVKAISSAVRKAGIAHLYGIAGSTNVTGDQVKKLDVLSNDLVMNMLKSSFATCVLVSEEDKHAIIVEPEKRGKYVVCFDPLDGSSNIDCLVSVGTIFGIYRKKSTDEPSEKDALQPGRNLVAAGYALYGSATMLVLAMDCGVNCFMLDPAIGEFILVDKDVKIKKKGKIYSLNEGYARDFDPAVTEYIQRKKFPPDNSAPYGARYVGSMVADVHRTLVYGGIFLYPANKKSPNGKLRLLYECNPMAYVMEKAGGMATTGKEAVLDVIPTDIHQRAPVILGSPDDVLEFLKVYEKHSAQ
A) 8.10
